Recorded values, source PubChem BioAssay (EPA / NIEHS).

- Read-out: growth arrest and DNA damage 45 (GADD45G), GADD45G (gene 10912)
- assay.remarks: LTEA_HepaRG_GADD45G: Life Technologies and Expression Analysis (LTEA) Assay for growth arrest and DNA damage 45 (GADD45G) using HepaRG (AID 2283499)
- condition.summary: mRNA level, 48 h; actives raise or lower the signal
Activity calls are given as the source filed them. The calls were made as follows: active = hit-call score of the fitted dose curve at least 0.9, where 1 is the maximum; inactive = score below 0.9.
Would you mind answering with one of these outcomes? active, inactive

# count of solved cases: 3
>>> answer_label("CC(Cl)(Cl)C(=O)O")
"inactive"
>>> answer_label("O=P(Oc1ccccc1)(Oc1ccccc1)Oc1ccccc1")
"active"
>>> answer_label("O=P1(N(CCCl)CCCl)NCCCO1 (stereo not given)")
"inactive"

Hi team, can someone confirm the assay call for CCCCCCCc1ccc(O)cc1 ?
inactive

Call for entry CC(C)(C)c1ccc(O)cc1 :
inactive

Given ClC(Cl)c1ccccc1 , state the outcome it received in this test.
inactive

Just curious, what result did Nc1cc2c3c(c1)C(c1ccccc1)=N[C@@H](NC(=O)c1cccnc1)C(=O)N3CC2 get here?
inactive

What did this assay record as the result for c1ccc(OP(Oc2ccccc2)Oc2ccccc2)cc1 ?
inactive

What did the test return for Cc1ccc([N+](=O)[O-])cc1C ?
inactive

---

- assay.remarks: ATG_VDRE_CIS: Attagene CIS-FACTORIAL HepG2 Assay for human Vitamin D Receptor Element (VDRE) (AID 2282968)
- condition.summary: HepG2 VDRE cis-reporter transcription, actives raise or lower the signal
Activity calls are given as the source filed them. The calls were made as follows: active = hit-call score of the fitted dose curve at least 0.9, where 1 is the maximum; inactive = score below 0.9.
Entry note: the call must match one of active, inactive

Reference set (2 entries):
>>> answer_label("CCC1(c2ccccc2)C(=O)N=C(O)NC1=O (stereo not given)")
"inactive"
>>> answer_label("Cc1cc(C)c(C(=O)P(=O)(c2ccccc2)c2ccccc2)c(C)c1")
"active"

API: the following record is the query input.
Tell me the assay call for NC(=O)C(F)(F)C(F)(F)F please.
inactive

---

- Read-out: Broad substrate specificity ATP-binding cassette transporter ABCG2 (Homo sapiens)
- assay.remarks: LTEA_HepaRG_ABCG2: Life Technologies and Expression Analysis (LTEA) Assay for ABC Transporter (ABCG2) using HepaRG (AID 2283465)
- condition.summary: mRNA level, 48 h; actives raise or lower the signal
Calls of active or inactive are those of the source. The calls were made as follows: active = hit-call score of the fitted dose curve at least 0.9, where 1 is the maximum; inactive = score below 0.9.
Returns: one label drawn from true (1) for active, false (0) for inactive

Use these answered entries as a reference point.
>>> answer_label("Cc1cccc(N)c1")
"false (0)"
>>> answer_label("CCCCc1ccccc1")
"false (0)"
>>> answer_label("[N-]=[N+]=[N-]")
"true (1)"
>>> answer_label("CCC(C)(C)c1ccc(O)cc1")
"false (0)"
>>> answer_label("O=P(Oc1ccccc1)(Oc1ccccc1)Oc1ccccc1")
"true (1)"
>>> answer_label("CCCN(CCC)c1c([N+](=O)[O-])cc(C(C)C)cc1[N+](=O)[O-]")
"true (1)"
>>> answer_label("Nc1ccc2ccccc2c1")
"false (0)"
>>> answer_label("O=C(O)C1C(C(=O)O)C2(Cl)C(Cl)=C(Cl)C1(Cl)C2(Cl)Cl (stereo not drawn)")
"false (0)"

Returns: the outcome recorded for CCCCCCCc1ccc(O)cc1 in this assay.
false (0)

---

- assay.remarks: BSK_SAg_SRB: Viability Assessment in the BioMAP Diversity Plus: SAg Assay (AID 2283096);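 also: cells read one day after compound addition; hits may be either gain or loss of signal compared with DMSO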
- condition.summary: primary human HUVEC with PBMC
- Protocol: BSK_SAg is a cell-based, multiplexed-readout assay that uses umbilical vein endothelium and peripheral blood mononuclear cells, a human vascular primary cell co-culture, with measurements taken at 24 hours after chemical dosing in a 96-well plate.BSK_SAg_SRB is an assay component measured in the BSK_SAg assay. […] This assay endpoint, BSK_SAg_SRB, was analyzed with bidirectional fitting relative to DMSO as the negative control and baseline of activity. […]
Active and inactive are the calls of the source. The calls were made as follows: active = hit-call score of the fitted dose curve at least 0.9, where 1 is the maximum; inactive = score below 0.9.
Hello, when you answer, please use one of the following outcomes: 1 (yes) = active, 0 (no) = inactive

Examples with answers:
>>> answer_label("CCNc1nc(Cl)nc(NC(C)(C)C)n1")
"0 (no)"
>>> answer_label("C=CC(=O)OCC(CC)(COC(=O)C=C)COC(=O)C=C")
"1 (yes)"
>>> answer_label("O=C(O)C1C(C(=O)O)C2(Cl)C(Cl)=C(Cl)C1(Cl)C2(Cl)Cl (centres undefined)")
"0 (no)"
>>> answer_label("CCN(CC)c1ccccc1")
"0 (no)"
>>> answer_label("CC(O)C(F)(F)C(F)(F)F (centres undefined)")
"0 (no)"

Could you please tell me the result logged for Nc1ccc([N+](=O)[O-])cc1Cl in this assay?
0 (no)

---

- Read-out: Vascular cell adhesion molecule 1 (VCAM1), VCAM1 (gene 7412)
- assay.remarks: BSK_CASM3C_VCAM1: BioMAP Diversity Plus: CASM3C Assay for Vascular cell adhesion molecule 1 (VCAM1) Biomarker Activity (AID 2283055);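 also: VCAM-1 protein level quantified by ELISA on the cells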
- condition.summary: primary human coronary artery smooth muscle cells; actives raise or lower the signal
Active and inactive are the calls of the source. The calls were made as follows: active = hit-call score of the fitted dose curve at least 0.9, where 1 is the maximum; inactive = score below 0.9.
Valid outcomes are listed here; reply with one: true = active, false = inactive

Record excerpt, results attached:
>>> answer_label("C=CC(=O)OCC(CC)(COC(=O)C=C)COC(=O)C=C")
"true"
>>> answer_label("Nc1cc2c3c(c1)C(c1ccccc1)=N[C@@H](NC(=O)c1cccnc1)C(=O)N3CC2")
"false"
>>> answer_label("c1nc[nH]n1")
"false"
>>> answer_label("Cc1c([N+](=O)[O-])cc2c(c1[N+](=O)[O-])C(C)(C)CC2(C)C")
"false"
>>> answer_label("O=P(Oc1ccccc1)(Oc1ccccc1)Oc1ccccc1")
"false"
>>> answer_label("CCCCC(CC)COC(=O)c1c(Br)c(Br)c(Br)c(Br)c1C(=O)OCC(CC)CCCC (configuration not stated)")
"false"
>>> answer_label("ClC(Cl)=C(c1ccc(Cl)cc1)c1ccccc1Cl")
"true"
>>> answer_label("CCN(CC)c1ccccc1")
"false"
>>> answer_label("COC(=O)C(F)(F)C(F)(F)OC(F)(C(F)(F)F)C(F)(F)OC(F)=C(F)F (configuration not stated)")
"false"
>>> answer_label("Nc1ccc([N+](=O)[O-])cc1Cl")
"false"

What did this assay record as the result for c1ccc2c(c1)sc1ccccc12 ?
false

Look up the recorded call for CCNc1nc(Cl)nc(NC(C)(C)C)n1 in this test.
false

---

- Read-out: Interferon-gamma inducible Protein 10 (IP10), CXCL10 (gene 3627)
- assay.remarks: BSK_KF3CT_IP10: BioMAP Diversity Plus: KF3CT Assay for Interferon-gamma inducible Protein 10 (IP10) Biomarker Activity (AID 2283068)
- condition.summary: primary human keratinocytes with fibroblasts; actives raise or lower the signal
Activity calls are given as the source filed them. The calls were made as follows: active = hit-call score of the fitted dose curve at least 0.9, where 1 is the maximum; inactive = score below 0.9.
// classify into TRUE (active), FALSE (inactive)

>>> answer_label("OCC(F)(F)OC(F)(F)C(F)(F)OC(F)(F)CO")
"FALSE"

Give the logged outcome of this assay for the following compound: O=C(O)C(F)(F)OC(F)(F)C(F)(F)OC(F)(F)C(=O)O
FALSE

Assay result, entry Nc1ccc([N+](=O)[O-])cc1Cl — outcome?
FALSE

What was the test verdict on C=CC(=O)OCC(CC)(COC(=O)C=C)COC(=O)C=C ?
TRUE

Assay outcome for CC(Cl)(Cl)C(=O)O : what was it?
FALSE

# lookup: test call for CCOC(=O)c1ccccc1C(=O)OCC
FALSE

Would you mind telling me which call this test gave ClC(Cl)=C(c1ccc(Cl)cc1)c1ccccc1Cl ?
TRUE

Hi team, can someone confirm the assay call for O=C(O)C=CC(F)(C(F)(F)F)C(F)(F)F ?
FALSE

What call does the record list for O=S1(=O)OCC2C(CO1)C1(Cl)C(Cl)=C(Cl)C2(Cl)C1(Cl)Cl (stereo not drawn) ?
FALSE

Test call for this compound, please: CC(C)Nc1ccc(Nc2ccccc2)cc1
TRUE

Can you look up the reported call for CCOP(=S)(OCC)SCSCC for me?
FALSE

Test call, this compound: CCOP(=S)(OCC)SCn1nnc2ccccc2c1=O
FALSE

Outcome logged for NC(=O)C(F)(F)C(F)(F)F in this assay:
FALSE

---

- assay.remarks: CCTE_Padilla_ZF_Score.Living: CCTE's 144 Hour Post-fertilization zebrafish Assay Score for Viability, Padilla Lab (AID 2284410);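 also: larval death at 6 dpf judged by absent heartbeat or coagulation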
- Procedure: CCTE_Padilla_ZF_Phenotype_Score is a whole embryo, multiplexed assay using zebrafish ova exposed for 144 hours post fertilization on a 96-well plate.CCTE_Padilla_ZF_Score.Living is one of one assay component(s) measured or calculated from the CCTE_Padilla_ZF_Phenotype_Score assay. […] This assay endpoint, CCTE_Padilla_ZF_Score.Living, was analyzed in the positive analysis fitting direction relative to DMSO as the negative control and baseline of activity. […]
Active and inactive are the calls of the source. Rule for the calls: active = hit-call score of the fitted dose curve at least 0.9, where 1 is the maximum; inactive = score below 0.9.
One label from this list, please: yes for active, no for inactive

>>> answer_label("NC(=O)C(F)(F)C(F)(F)F")
"no"
>>> answer_label("OCC(F)(F)OC(F)(F)C(F)(F)OC(F)(F)CO")
"no"
>>> answer_label("O=C(O)C(F)(F)OC(F)(F)C(F)(F)OC(F)(F)C(=O)O")
"no"
>>> answer_label("CC(O)C(F)(F)C(F)(F)F (stereo unspecified)")
"no"
>>> answer_label("OCC(F)(F)OC(F)(F)C(F)(F)OC(F)(F)C(F)(F)OC(F)(F)F")
"yes"
>>> answer_label("OCC(F)(F)OC(F)(F)C(F)(F)OC(F)(F)C(F)(F)OC(F)(F)CO")
"yes"
>>> answer_label("C=CC(=O)OCC(F)(F)C(F)F")
"yes"
>>> answer_label("O=S(=O)(F)C(F)(F)C(F)(F)C(F)(F)C(F)(F)C(F)(F)C(F)(F)C(F)(F)C(F)(F)F")
"no"

Record request — test call for COC(=O)C(F)(F)C(F)(F)OC(F)(C(F)(F)F)C(F)(F)OC(F)=C(F)F (stereo unspecified)
no

Test call for this compound, please: O=C(O)C(F)(F)C(F)(F)C(=O)O
no

Which result was noted for this compound in the test: O=C(O)C=CC(F)(C(F)(F)F)C(F)(F)F
no
